# System: NCI-H295R
# EXPERIMENT DESCRIPTION: AC50 viability; higher = less potent
# ASSAY SETUP: 48 h
READOUT TYPE: AC50 viability (µM)

INSERT INTO assay_data (compound, measured_target, recorded_measurement) VALUES
  ('CN1CCN(c2ccc(C(=O)Nc3n[nH]c4ccc(Cc5cc(F)cc(F)c5)cc34)c(NC3CCOCC3)c2)CC1', 'NCI-H295R', 5.9),
  ('ClC/1=C(NCCN2CCOCC2)/C(=O)C3=C(C=CC=N3)C1=O', 'NCI-H295R', 5.9),
  ('N=C(N)c1ccc(OCCCCCOc2ccc(C(=N)N)cc2)cc1', 'NCI-H295R', 14.8),
  ('Cc1nc(Nc2ncc(C(=O)Nc3c(C)cccc3Cl)s2)cc(N2CCN(CCO)CC2)n1', 'NCI-H295R', 23.5),
  ('COc1ccc2c(c1OC)C(=O)O[C@H]2[C@H]1c2c(cc3c(c2OC)OCO3)CCN1C', 'NCI-H295R', 20.9),
  ('Nc1ncccc1-c1nc2ccc(-c3ccccc3)nc2n1-c1ccc(C2(N)CCC2)cc1', 'NCI-H295R', 5.9),
  ('CC1=C2N=C([NH]C2=CC(=C1)N3CCOCC3)\C4=C(NC[C@@H](O)C5=CC=CC(=C5)Cl)\C=C/NC4=O', 'NCI-H295R', 0.468),
  ('C=CCn1c(=O)c2cnc(Nc3ccc(N4CCN(C)CC4)cc3)nc2n1-c1cccc(C(C)(C)O)n1', 'NCI-H295R', 1.86),
  ('Clc1ccc(C(Cn2ccnc2)OCc2c(Cl)cccc2Cl)c(Cl)c1 (stereo not drawn)', 'NCI-H295R', 20.9),
  ('CC(=O)O[C@@]12CO[C@@H]1C[C@H](O)[C@@]1(C)C(=O)[C@H](O)C3=C(C)[C@@H](OC(=O)[C@H](O)[C@@H](NC(=O)OC(C)(C)C)c4ccccc4)C[C@@](O)([C@@H](OC(=O)c4ccccc4)[C@H]21)C3(C)C', 'NCI-H295R', 0.417),
  ('CN1C(=O)c2sccc2N(C)c2nc(Nc3ccc([S+](N)(=O)[O-])cc3)ncc21', 'NCI-H295R', 5.25),
  ('COc1ccc([S+](=O)([O-])N(CCO)c2ccccc2CN(C)C/C=C/c2ccc(Cl)cc2)cc1', 'NCI-H295R', 20.9),
  ('CC(O)(C#Cc1ccc2c(c1)N(c1nc(N)ncc1Cl)CC2)c1nccs1 (stereo not drawn)', 'NCI-H295R', 16.6),
  ('Cc1cnc(Nc2ccc(OCCN3CCCC3)cc2)nc1Nc1cccc([S+](=O)([O-])NC(C)(C)C)c1', 'NCI-H295R', 8.33),
  ('CC(C)[C@@H](N(CCCN)C(=O)C1=CC=C(C)C=C1)C/2=N/C3=CC(=CC=C3C(=O)N2CC4=CC=CC=C4)Cl', 'NCI-H295R', 5.9),
  ('CCC(C)SSc1ncc[nH]1 (stereo not drawn)', 'NCI-H295R', 23.5),
  ('Cc1cc(I)ccc1Nc1c(C(=O)NOCC2CC2)cc(F)c(F)c1F', 'NCI-H295R', 8.33),
  ('O=C(O)c1ccc2c(c1)nc(Nc1cccc(Cl)c1)c1ccncc12', 'NCI-H295R', 2.63),
  ('C[N]1C=C(C=N1)C2=CC=C3N=CC\4=C(N(C(=O)\C=C4)C5=CC6=C(CCN6C(=O)C=C)C=C5)C3=C2', 'NCI-H295R', 0.723),
  ('N#C/C(=C1/Nc2ccccc2S1)c1ccnc(OCc2ccc(CN3CCOCC3)cc2)n1', 'NCI-H295R', 11.8),
  ('C[C@@H]1CCNC(=O)c2cc3ccc(C(=O)Nc4nc5ccccc5n4CCCN(C)C)cc3n21', 'NCI-H295R', 18.6),
  ('CCN(CC)CCNC(=O)c1c(C)[nH]c(/C=C2\C(=O)Nc3ccc(F)cc32)c1C', 'NCI-H295R', 9.34),
  ('C=C1C[C@@H]2CC[C@@]34C[C@H]5O[C@H]6[C@@H](O3)[C@H]3O[C@H](CC[C@@H]3O[C@H]6[C@H]5O4)CC(=O)C[C@@H]3[C@@H](OC)[C@@H](C[C@H](O)CN)O[C@H]3C[C@H]3O[C@@H](CC[C@@H]1O2)C[C@@H](C)C3=C', 'NCI-H295R', 0.00959),
  ('CCN1CCN(Cc2ccc(-c3cc4c(N[C@H](C)c5ccccc5)ncnc4[nH]3)cc2)CC1', 'NCI-H295R', 18.6),
  ('CC1(C)CC(=O)c2c(C(F)(F)F)nn(-c3ccc(C(N)=O)c(NC4CCC(O)CC4)c3)c2C1 (stereo not drawn)', 'NCI-H295R', 0.833),
  ('CCOC(=O)CCNc1cc(N2CCc3ccccc3CC2)nc(-c2ccccn2)n1', 'NCI-H295R', 3.72),
  ('COc1cc(CCc2cc(NC(=O)c3ccc(N4C[C@@H](C)N[C@@H](C)C4)cc3)n[nH]2)cc(OC)c1', 'NCI-H295R', 9.34),
  ('COc1ccc2c(c[n+](C)c3c4cc5c(cc4ccc23)OCO5)c1OC', 'NCI-H295R', 20.9),
  ('CC(C)CNc1ccnc(NCc2csc(-c3ccccc3)n2)n1', 'NCI-H295R', 16.6),
  ('COc1ccc(C(=O)c2c(C)n(CCN3CCOCC3)c3ccccc23)cc1', 'NCI-H295R', 5.25),
  ('CC[C@@H](C)Nc1cc(C(=O)NC2CC3CCC(C2)N3c2ccc(C(=O)C3CC3)cn2)c(C)cc1C(N)=O (stereo partly drawn)', 'NCI-H295R', 0.934),
  ('COCCOc1nc(-c2ccc(Cl)c(Cl)c2)n(-c2ccc(NC(=O)CCl)cc2)n1', 'NCI-H295R', 3.72),
  ('CC1(C)CC\C2=C(/O1)C3=C(C=CC=C3)C(=O)C2=O', 'NCI-H295R', 33.2);

Attribution: the supplement of paper PMC10949913
